Data provenance is ChEMBL document CHEMBL4673400.

# test-system: Cyclin-dependent kinase 2/cyclin E1 (Homo sapiens)
pKi: −log10 of the molar value.

{"columns": ["compound", "pKi"],
 "data": [
  ["C[C@]1(O)CCC[C@@H]1n1c(=O)ccc2cnc(NC3CCN(S(=O)(=O)c4nccs4)CC3)nc21", 8.14],
  ["C[C@@]1(O)CCC[C@H]1n1c(=O)ccc2cnc(NC3CCN(S(N)(=O)=O)CC3)nc21", 10.00],
  ["C[C@@]1(O)CCC[C@H]1n1c(=O)ccc2cnc(NC3CCN(S(=O)(=O)CC4CC4)CC3)nc21", 9.60],
  ["C[C@@]1(O)CCC[C@H]1n1c(=O)c(CC#N)cc2cnc(NC3CCN(S(C)(=O)=O)CC3)nc21", 9.80],
  ["CS(=O)(=O)N1CCC(Nc2ncc3cc(CC(N)=O)c(=O)n([C@@H]4CCC[C@@H](O)C4)c3n2)CC1", 8.76],
  ["C[C@@H]1[C@H](O)CC[C@H]1n1c(=O)ccc2cnc(NC3CCN(S(C)(=O)=O)CC3)nc21", 9.92],
  ["CNS(=O)(=O)N1CCC(Nc2ncc3cc(Cl)c(=O)n([C@@H]4CCC[C@@]4(C)O)c3n2)CC1", 9.70],
  ["CNS(=O)(=O)N1CCC(Nc2ncc3ccc(=O)n([C@@H]4CCC[C@@]4(C)O)c3n2)CC1", 9.55]
]}

###

# test-system: CDK6/cyclin D1 (Homo sapiens)
# Sequence (P24385 whole entry): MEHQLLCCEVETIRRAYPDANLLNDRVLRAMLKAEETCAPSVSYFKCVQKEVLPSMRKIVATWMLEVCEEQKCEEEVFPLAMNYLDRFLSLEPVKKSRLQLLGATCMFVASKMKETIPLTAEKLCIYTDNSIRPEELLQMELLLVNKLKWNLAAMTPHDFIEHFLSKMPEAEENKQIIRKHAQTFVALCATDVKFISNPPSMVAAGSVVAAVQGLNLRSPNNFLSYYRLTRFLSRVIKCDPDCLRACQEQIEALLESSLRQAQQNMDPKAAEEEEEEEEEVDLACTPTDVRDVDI
# Sequence (Q00534 whole entry): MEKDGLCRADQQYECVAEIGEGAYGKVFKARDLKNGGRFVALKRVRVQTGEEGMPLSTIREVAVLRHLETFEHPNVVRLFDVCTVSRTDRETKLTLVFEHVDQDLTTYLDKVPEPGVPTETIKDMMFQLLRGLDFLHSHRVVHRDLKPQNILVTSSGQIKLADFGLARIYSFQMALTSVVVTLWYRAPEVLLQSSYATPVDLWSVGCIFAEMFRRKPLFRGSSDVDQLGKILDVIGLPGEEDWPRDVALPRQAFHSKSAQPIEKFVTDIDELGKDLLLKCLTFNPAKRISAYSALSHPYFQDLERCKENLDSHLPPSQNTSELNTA

{"columns": ["compound", "Ki"],
 "data": [
  ["C[C@@]1(O)CCC[C@H]1n1c(=O)ccc2cnc(NC3CCN(S(=O)(=O)CC4CC4)CC3)nc21", "880 pM"]
]}
